- TGT: SuxC (XCC3357 inner membrane sugar transporter) (Xanthomonas campestris)
- Sequence (Q8P5I4 entry or part of it): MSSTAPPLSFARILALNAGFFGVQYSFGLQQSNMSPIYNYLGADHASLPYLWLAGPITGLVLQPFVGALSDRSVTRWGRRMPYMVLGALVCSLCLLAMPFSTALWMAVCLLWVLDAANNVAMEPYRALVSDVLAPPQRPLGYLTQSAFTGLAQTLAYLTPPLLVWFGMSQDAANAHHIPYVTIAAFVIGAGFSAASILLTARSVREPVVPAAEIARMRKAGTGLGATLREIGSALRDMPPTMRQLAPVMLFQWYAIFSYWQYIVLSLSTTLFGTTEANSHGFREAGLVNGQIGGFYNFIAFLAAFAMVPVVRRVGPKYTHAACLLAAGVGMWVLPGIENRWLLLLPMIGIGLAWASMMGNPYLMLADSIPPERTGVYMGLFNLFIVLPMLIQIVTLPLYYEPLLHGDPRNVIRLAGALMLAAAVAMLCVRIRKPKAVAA
- METHOD_NOTES: […]sucrose concentration-dependent uptake in whole wild-type cells (Scatchard, slow phase); uptake lost in suxC insertion mutant
OBSERVED_PROPERTY: pKd
Keep in mind that pKd stands for -log10 of concentration in molar terms.

Exam item: // query pKd value for entry OC[C@H]1O[C@@](CO)(O[C@H]2O[C@H](CO)[C@@H](O)[C@H](O)[C@H]2O)[C@@H](O)[C@@H]1O
Marked response: 6.23

---

- TGT: UniProtKB Q8P5I3
- Sequence (Q8P5I3 entry or part of it): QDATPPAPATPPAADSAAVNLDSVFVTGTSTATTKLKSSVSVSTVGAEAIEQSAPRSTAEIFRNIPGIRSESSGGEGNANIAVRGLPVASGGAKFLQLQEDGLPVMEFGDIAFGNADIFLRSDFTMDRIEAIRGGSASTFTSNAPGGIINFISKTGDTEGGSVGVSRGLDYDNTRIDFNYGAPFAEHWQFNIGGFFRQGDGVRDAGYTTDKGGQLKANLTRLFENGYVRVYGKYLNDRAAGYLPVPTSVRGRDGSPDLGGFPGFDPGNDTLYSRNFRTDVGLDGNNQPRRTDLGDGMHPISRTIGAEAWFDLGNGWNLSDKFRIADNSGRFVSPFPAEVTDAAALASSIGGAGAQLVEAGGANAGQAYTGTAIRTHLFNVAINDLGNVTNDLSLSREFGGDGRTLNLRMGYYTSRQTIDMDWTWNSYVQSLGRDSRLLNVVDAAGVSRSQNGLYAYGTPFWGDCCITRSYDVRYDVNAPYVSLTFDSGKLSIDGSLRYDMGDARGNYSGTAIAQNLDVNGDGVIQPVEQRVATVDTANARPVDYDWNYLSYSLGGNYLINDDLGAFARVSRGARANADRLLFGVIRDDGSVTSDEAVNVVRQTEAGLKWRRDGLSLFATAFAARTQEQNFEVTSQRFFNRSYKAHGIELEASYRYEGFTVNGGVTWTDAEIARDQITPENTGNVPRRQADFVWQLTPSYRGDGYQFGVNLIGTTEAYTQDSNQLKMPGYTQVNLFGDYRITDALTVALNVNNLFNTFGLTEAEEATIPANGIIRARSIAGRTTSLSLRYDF
- METHOD_NOTES: […]sucrose concentration-dependent uptake in whole wild-type cells (Scatchard, high-affinity phase); uptake lost in suxA deletion mutant and restored by complementation
OBSERVED_PROPERTY: Kd (nM)
The answer is to be given in nM; state only the numeric part.

Exam item: Reported Kd for OC[C@H]1O[C@@](CO)(O[C@H]2O[C@H](CO)[C@@H](O)[C@H](O)[C@H]2O)[C@@H](O)[C@@H]1O : what is it?
Marked response: 33
